Assay Remarks: Half life in human plasma at 1 uM by LC-MS/MS analysis
Format: ADME, cell-free
Parameter half-life at 1 µM: see the listing below.
Measured Endpoint: half-life at 1 µM

>>> endpoint_value("COc1cc(/C=C/C(=O)OCCCCCCN(C)CCOC(=O)c2cc(OC)c(OC)c(OC)c2)cc(OC)c1OC")
"> 4 h"
>>> endpoint_value("COc1cc(/C=C/C(=O)OCCCCN(C)CCCCCCOC(=O)c2c3ccccc3cc3ccccc23)cc(OC)c1OC")
"> 4 h"
>>> endpoint_value("COc1cc(/C=C/C(=O)OCCCCCCN(C)CCOC(=O)c2c3ccccc3cc3ccccc23)cc(OC)c1OC")
"> 4 h"

---

Measured On: UniProtKB Q9UNQ0
Sequence (Q9UNQ0 whole entry): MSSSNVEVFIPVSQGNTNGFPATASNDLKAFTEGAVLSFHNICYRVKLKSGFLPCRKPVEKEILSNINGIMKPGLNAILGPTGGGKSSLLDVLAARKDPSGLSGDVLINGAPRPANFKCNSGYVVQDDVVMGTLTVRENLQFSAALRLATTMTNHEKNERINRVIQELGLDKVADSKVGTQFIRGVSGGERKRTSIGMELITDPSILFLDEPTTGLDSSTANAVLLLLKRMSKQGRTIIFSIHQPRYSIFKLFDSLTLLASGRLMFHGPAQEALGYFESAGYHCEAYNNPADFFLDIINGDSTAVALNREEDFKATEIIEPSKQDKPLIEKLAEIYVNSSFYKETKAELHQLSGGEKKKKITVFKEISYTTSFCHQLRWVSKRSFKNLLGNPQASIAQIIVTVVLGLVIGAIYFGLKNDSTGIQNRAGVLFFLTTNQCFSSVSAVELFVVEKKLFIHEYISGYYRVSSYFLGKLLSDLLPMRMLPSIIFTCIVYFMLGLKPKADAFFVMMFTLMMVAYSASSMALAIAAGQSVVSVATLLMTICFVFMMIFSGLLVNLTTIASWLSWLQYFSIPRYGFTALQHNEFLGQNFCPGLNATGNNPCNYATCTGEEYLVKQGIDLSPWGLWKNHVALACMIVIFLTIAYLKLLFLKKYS
Assay Remarks: Inhibition of BCRP (unknown origin) in MDCK-BCRP assessed as inhibtion of hoechst 33342 transport incubated for 30 mins by fluorescence assay
pEC50: −log10 of the molar value.
Measured Endpoint: pEC50

>>> endpoint_value("COc1cc(/C=C/C(=O)OCCCCCCN(C)CCCCOC(=O)c2cc(OC)c(OC)c(OC)c2)cc(OC)c1OC")
4.80
>>> endpoint_value("COc1cc(/C=C/C(=O)OCCCN(C)CCCCCCCOC(=O)c2c3ccccc3cc3ccccc23)cc(OC)c1OC")
5.52
>>> endpoint_value("COc1cc(/C=C/C(=O)OCCCCCCCN(C)CCCOC(=O)c2cc(OC)c(OC)c(OC)c2)cc(OC)c1OC")
5.09
>>> endpoint_value("COc1cc(/C=C/C(=O)OCCCCCCCCN(C)CCOC(=O)c2c3ccccc3cc3ccccc23)cc(OC)c1OC")
5.27
>>> endpoint_value("COc1cc(/C=C/C(=O)OCCN(C)CCCCCCCCOC(=O)c2c3ccccc3cc3ccccc23)cc(OC)c1OC")
5.29
>>> endpoint_value("COc1cc(/C=C/C(=O)OCCCCCCCCN(C)CCOC(=O)c2cc(OC)c(OC)c(OC)c2)cc(OC)c1OC")
5.42
>>> endpoint_value("COc1cc(/C=C/C(=O)OCCCCN(C)CCCCCCOC(=O)c2c3ccccc3cc3ccccc23)cc(OC)c1OC")
5.48
>>> endpoint_value("COc1cc(/C=C/C(=O)OCCCCCCN(C)CCCCOC(=O)c2c3ccccc3cc3ccccc23)cc(OC)c1OC")
5.42
>>> endpoint_value("COc1cc(/C=C/C(=O)OCCN(C)CCCCCCCCOC(=O)c2cc(OC)c(OC)c(OC)c2)cc(OC)c1OC")
5.35
>>> endpoint_value("COc1cc(/C=C/C(=O)OCCCCCCCN(C)CCCOC(=O)c2c3ccccc3cc3ccccc23)cc(OC)c1OC")
5.41
